// data source = paper PMC6100415

assayed target: UGT1A1 (Homo sapiens)
Construct: The typical incubation mixture contained human liver microsomes (0.5 mg/mL) along with SKN (10 μM); tissue BD Gentest; host or cells: human liver microsomes
Sequence (P22309 26-533): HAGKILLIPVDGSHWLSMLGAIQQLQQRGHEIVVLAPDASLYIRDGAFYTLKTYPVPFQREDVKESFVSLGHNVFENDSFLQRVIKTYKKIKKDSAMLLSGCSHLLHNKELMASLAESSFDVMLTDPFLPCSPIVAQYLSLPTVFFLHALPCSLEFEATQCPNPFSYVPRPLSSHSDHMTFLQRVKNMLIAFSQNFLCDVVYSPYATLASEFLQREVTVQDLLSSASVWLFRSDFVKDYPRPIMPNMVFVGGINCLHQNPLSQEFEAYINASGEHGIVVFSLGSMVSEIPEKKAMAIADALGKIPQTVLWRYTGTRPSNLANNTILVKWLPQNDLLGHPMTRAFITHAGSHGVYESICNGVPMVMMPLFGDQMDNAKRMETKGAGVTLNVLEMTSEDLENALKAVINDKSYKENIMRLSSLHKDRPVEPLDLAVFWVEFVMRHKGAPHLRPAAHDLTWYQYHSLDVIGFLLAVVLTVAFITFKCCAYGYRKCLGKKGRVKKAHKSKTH
test summary: UGT inhibition in human liver microsomes, 17β-estradiol 3-O-glucuronidation (ESG)
Assay type: in vitro ADME
condition details: pH 7.4, probe 17β-estradiol (200 μM), SKN 10 μM, 15 min pre-incubation, read-out: % Inhibition in Pre-Incubation
measurement name: inhibition at 10 μM (%)

• COc1cc(O)c2c(c1)OC(c1ccc(O)cc1)CC2=O (racemic) [SKN, (+/−) 7-O-methylnaringenin] = 1.5

---

assayed target: CYP2D6 (Homo sapiens)
Sequence (P10635 whole entry): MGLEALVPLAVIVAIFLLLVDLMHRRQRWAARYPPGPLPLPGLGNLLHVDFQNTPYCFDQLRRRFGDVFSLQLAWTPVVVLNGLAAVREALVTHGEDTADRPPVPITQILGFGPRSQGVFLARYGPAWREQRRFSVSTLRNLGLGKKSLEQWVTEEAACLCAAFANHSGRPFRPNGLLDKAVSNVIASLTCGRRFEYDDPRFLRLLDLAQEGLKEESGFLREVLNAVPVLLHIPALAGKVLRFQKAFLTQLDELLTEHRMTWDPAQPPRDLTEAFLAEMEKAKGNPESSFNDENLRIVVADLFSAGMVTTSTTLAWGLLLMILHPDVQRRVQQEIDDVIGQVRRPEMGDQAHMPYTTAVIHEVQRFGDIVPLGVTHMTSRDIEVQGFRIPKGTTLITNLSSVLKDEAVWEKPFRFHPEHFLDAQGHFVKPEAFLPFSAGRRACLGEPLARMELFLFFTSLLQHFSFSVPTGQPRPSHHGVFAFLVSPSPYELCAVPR
test summary: CYP inhibition in human liver microsomes, dextromethorphan O-demethylation (DEXOD)
Type: in vitro ADME
condition details: liver microsomes, pH 7.4, probe dextromethorphan (O-demethylation, DEXOD), 200 μM, SKN 10 μM, 15 min pre-incubation, read-out: % Inhibition in Pre-Incubation
measurement name: inhibition at 60 min, 10 µM (%)

- COc1cc(O)c2c(c1)OC(c1ccc(O)cc1)CC2=O (racemic) [SKN, (+/−) 7-O-methylnaringenin]: 3.5

---

test summary: UDPGA-dependent metabolic stability in dog liver microsomes
Format: in vitro ADME
condition details: dog, liver microsomes, pH 7.4, dog liver microsomes, NADPH −
measurement name: half-life at 100 µM (min)

• COc1cc(O)c2c(c1)OC(c1ccc(O)cc1)CC2=O (racemic) [SKN, (+/−) 7-O-methylnaringenin] = 24.2

---

assayed target: CYP2B6 (Homo sapiens, UniProt P20813)
Sequence (P20813 1-491): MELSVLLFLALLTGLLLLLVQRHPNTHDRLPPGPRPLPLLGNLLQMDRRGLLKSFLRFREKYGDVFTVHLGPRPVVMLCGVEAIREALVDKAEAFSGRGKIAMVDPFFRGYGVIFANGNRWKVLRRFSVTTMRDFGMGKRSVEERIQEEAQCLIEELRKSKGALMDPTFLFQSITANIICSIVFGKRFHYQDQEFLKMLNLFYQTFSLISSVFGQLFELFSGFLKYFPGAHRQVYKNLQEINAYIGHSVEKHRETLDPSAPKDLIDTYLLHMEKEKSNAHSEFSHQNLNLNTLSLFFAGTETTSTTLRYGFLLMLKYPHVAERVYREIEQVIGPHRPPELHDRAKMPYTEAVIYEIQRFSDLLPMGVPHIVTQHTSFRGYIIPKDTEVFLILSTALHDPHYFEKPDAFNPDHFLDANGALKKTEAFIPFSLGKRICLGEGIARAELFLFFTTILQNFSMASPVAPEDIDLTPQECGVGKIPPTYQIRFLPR
test summary: CYP inhibition in human liver microsomes, bupropion hydroxylation (BPHY)
Type: in vitro ADME
condition details: liver microsomes, pH 7.4, probe bupropion (hydroxylation, BPHY), 200 μM, SKN 10 μM, human liver microsomes, read-out: % Inhibition in Co-Incubation
measurement name: inhibition at 60 min, 10 µM (%)

- COc1cc(O)c2c(c1)OC(c1ccc(O)cc1)CC2=O (racemic) [SKN, (+/−) 7-O-methylnaringenin]: -0.6
